These measurements were taken from patent US20260258115A1.

Give Kd for every item shown.
molecular target: T1, RSV prefusion F (preF), subtype B (respiratory syncytial virus subtype B); test: BLI, IgG
T1 construct: also called Prefusion subtype B
Express it in nM; write the number only.

Req: Would you kindly share the measured Kd for ADI-19454 (antibody, V domains shown, full-length IgG) VH: EVQLLESGGGLVKPGGSLRLSCAASGFTFSSYSMNWVRQAPGKGLEWVSSISSSSSYIYYADSVKGRFTISRDNAKNSLYLQMNSLRAEDTAVYYCARGYCSGGSCYSHYFQHWGQGTLVTVSS VL: QSVLTQPASVSGSPGQSITISCTGTSSDVGGYNYVSWYQQHPGKAPKLMIYDVSNRPSGVSNRFSGSKSGNTASLTISGLQAEDEADYYCSSYTSSSTVVFGGGTKVTVL ?
Resp: 15.7

Req: Would you kindly share the measured Kd for ADI-14386 (antibody, V domains shown, full-length IgG; also called Ab 54) VH: EVQLVESGGGLVQPGGSLRLSCAASRFTFSSYAMSWVRQAPGKGLEWVSGIGASGGTTYYADSVKGRFTISRDNSKNTVYLQMNSLRAEDTAVYYCARCEYYYGSGSAGYYFDYWGQGTLVTVSS VL: SYELTQPPSVSVSPGQTASITCSGDKLGSKFAFWYQQKPGQSPVLVIFQDVKRPSGIPERFSGSNSGNTATLTISGTQAMDEADYYCQAWDSGTAVFGGGTKVTVL ?
Resp: 3.04

Req: Would you kindly share the measured Kd for ADI-19467 (antibody, V domains shown, full-length IgG) VH: EVQLVESGGGLVKPGGSLRLSCAASGFTFSSYSMNWVRQAPGKGLEWVSSISSSSSYIYYADSVKGRFTISRDNAKNSLYLQMNSLRAEDTAVYYCASLSSSSELGYYFDYWGQGTLVTVSS VL: QPVLTQPPSVSGAPGQRVTISCTGSSSNIGAGYDVHWYQQLPGTAPKLLIYGNSNRPSGVPDRFSGSKSGTSASLAITGLQAEDEADYYCQSYDSSLSGYVFGTGTKLTVL ?
Resp: 37.7

Req: Would you kindly share the measured Kd for ADI-14337 (antibody, V domains shown, full-length IgG; also called Ab 5) VH: EVQLVESGGGLVKPGGSLRLSCAASGFTFSSYSMNWVRQAPGKGLEWVSSISSSSSYIYYADSVKGRFTISRDNAKNSLYLQMNSLRAEDTAVYYCAREYYDSSGYTNWFDPWGQGTLVTVSS VL: QPVLTQPPSVSGAPGQRVTISCTGSSSNIGAGYDVHWYQQLPGTAPKLLIYGNSNRPSGVPDRFSGSKSGTSASLAITGLQAEDEADYYCQSYDSSLAWVFGGGTQLTVL ?
Resp: 2.11

Req: Would you kindly share the measured Kd for ADI-24795 (antibody, V domains shown, full-length IgG; also called Ab 363) VH: EVQLVESGGGLVKPGGSLRLSCAASGFTFSSYSMNWVRQAPGKGLEWVSSISSSSSYIYYADSVKGRFTISRDNAKNSLYLQMNSLRAEDTAVYYCARVGYSSSSGAFDYWGQGTLVTVSS VL: QSVLTQPPSVSGAPGQRVTISCTGSSSNIGAGYDVHWYQQLPGTAPKLLIYGNSNRPSGVPDRFSGSKSGTSASLAITGLQAEDEADYYCQSYDSSLSGSVFGGGTKVTVL ?
Resp: 34.2
